Reference source for all entries: ChEMBL document CHEMBL2424614

# Species on record: Bos taurus
# procedure details: Inhibition of calf thymus DNA topoisomerase 1-mediated relaxation of supercoiled pBR322 DNA at 100 uM after 30 mins by Agarose gel electrophoresis
Activity calls are given as the source filed them. The calls are words filed in the database; no cut-off is given here.
Possible outcomes: 1 = active, -1 = inactive

| compound smiles | class name |
| --- | --- |
| Oc1ccc(-c2ccc(-c3ccc(O)c(O)c3)c(O)c2O)cc1 | -1 |
| Oc1ccc(-c2cc(O)c(-c3ccc(O)c(O)c3)c(O)c2)cc1 | 1 |
| Oc1ccc(-c2ccc(-c3ccc(O)c(O)c3)c(O)c2)cc1 | -1 |
| CC[C@@]1(O)C(=O)OCc2c1cc1n(c2=O)Cc2cc3c(O)cccc3nc2-1 | 1 |
| COc1ccc(-c2ccc(-c3ccc(OC)c(OC)c3)c(OC)c2)cc1 | -1 |
| COc1ccc(-c2ccc(-c3ccc(O)cc3)c(OC)c2OC)cc1OC | -1 |
| COc1ccc(-c2ccc(-c3ccc(O)cc3)cc2)cc1OC | -1 |
| Oc1ccc(-c2ccc(-c3ccc(O)c(O)c3)cc2)cc1 | 1 |
| COc1ccc(-c2cc(OC)c(-c3ccc(OC)c(OC)c3)c(OC)c2)cc1 | -1 |
